Each record here notes measured MIC.
Test system: Trichoderma viride
RUN DESCRIPTION: Antifungal activity against Trichoderma viride IAM 5061 after 72 hrs by serial dilution method
Format: functional
CONDITION NOTES: IAM 5061, 72 h
The figure you give is taken to be in µM; do not add the unit.

{"columns": ["COMPOUND", "TARGET OR TEST SYSTEM", "NUMBER"],
 "data": [
  ["O=C1N/C(=N/c2nc(C34CC5CC(CC(C5)C3)C4)cs2)S/C1=C\\c1ccc(O)cc1", "Trichoderma viride", 11.5],
  ["O=C1N/C(=N/c2nc(C34CC5CC(CC(C5)C3)C4)cs2)S/C1=C\\c1ccc(Cl)cc1", "Trichoderma viride", 11],
  ["CC(=O)N1CCN(c2ccc(OCC3COC(Cn4ccnc4)(c4ccc(Cl)cc4Cl)O3)cc2)CC1 (stereo not drawn)", "Trichoderma viride", 4750],
  ["COc1ccc(/C=C2\\S/C(=N\\c3nc(C45CC6CC(CC(C6)C4)C5)cs3)NC2=O)cc1", "Trichoderma viride", 11.6]
]}

Prompt: Suppose we examine the compound O=C1N/C(=N/c2nc(C34CC5CC(CC(C5)C3)C4)cs2)S/C1=C\c1cccc(Cl)c1 ; what MIC value has been reported?
Response: 11

Prompt: And the next one, O=C1N/C(=N/c2nc(C34CC5CC(CC(C5)C3)C4)cs2)S/C1=C\c1cccc([N+](=O)[O-])c1 ?
Response: 5.4

Prompt: And the next one, O=C1N/C(=N/c2nc(C34CC5CC(CC(C5)C3)C4)cs2)S/C1=C\c1ccc([N+](=O)[O-])cc1 ?
Response: 10.8

Prompt: And the next one, O=C1CS/C(=N/c2nc(C34CC5CC(CC(C5)C3)C4)cs2)N1 ?
Response: 11.9
